tested on: production of CD69 by B lymphocytes in human whole blood; experiment: CD69 Whole Blood Assay (CD69 Hu Blood FACS); type: cell-based; conditions: human whole blood activated with goat F(ab')2 anti-human IgM, 20 hours; CD69 on CD20 positive cells by FACS; Table 1
Param threshold (20 nM) applies to CD69 Hu Blood FACS (IC70); output Satisfied when value >= threshold, Not satisfied when value < threshold.

Data request: Does the molecule `Cn1cc(-c2ccnc(-n3ncc4cc(C(C)(C)C)cc(F)c4c3=O)c2CO)cc(Nc2ccc(N3CCN(C4COC4)CC3)cn2)c1=O` have recorded CD69 Hu Blood FACS (IC70) that is 20 nM or more?
Data returned: Not satisfied

Data request: Given the entry `CC[C@H]1CN(C2COC2)CCN1c1ccc(Nc2cc(-c3cc(F)cc(-n4ncc5cc(C(C)(C)C)cc(F)c5c4=O)c3CO)cn(C)c2=O)nc1` , answer whether its CD69 Hu Blood FACS (IC70) meets or surpasses 20 nM.
Data returned: Satisfied

Data request: Item `C[C@@H]1CN(c2ccc(Nc3cc(-c4ccnc(-n5ncc6cc(C(C)(C)C)cc(F)c6c5=O)c4CO)cn(C)c3=O)nc2)[C@@H](C)CN1C1COC1` with CD69 Hu Blood FACS (IC70) of 20 nM or above?
Data returned: Not satisfied

Data request: Does CD69 Hu Blood FACS (IC70) meet or surpass 20 nM for `CN1CCN(c2ccc(Nc3cc(-c4cccc(-n5ncc6cc(C(C)(C)C)cc(F)c6c5=O)c4CO)cn(C)c3=O)nc2)CC1` ?
Data returned: Satisfied

Data request: Please indicate if the recorded CD69 Hu Blood FACS (IC70) for `C[C@H]1CN(C2COC2)CCN1c1ccc(Nc2cc(-c3ccnc(-n4ncc5cc(C(C)(C)C)cc(F)c5c4=O)c3CO)cn(C)c2=O)nc1` meets or exceeds 20 nM.
Data returned: Not satisfied

Data request: Quick check, CD69 Hu Blood FACS (IC70) >= 20 nM? `C[C@@H]1CN(C2COC2)CCN1c1ccc(Nc2cc(-c3cc(F)cc(-n4ncc5cc(C(C)(C)C)cc(F)c5c4=O)c3CO)cn(C)c2=O)nc1`
Data returned: Satisfied

Data request: Say whether `C[C@H]1CN(C2COC2)CCN1c1ccc(Nc2cc(-c3cc(F)cc(-n4ncc5cc(C(C)(C)C)cc(F)c5c4=O)c3CO)cn(C)c2=O)nc1` shows CD69 Hu Blood FACS (IC70) of 20 nM or more.
Data returned: Satisfied
